I'd appreciate it if you could supply IC50 values for the items below.
target: NRAS WT (Homo sapiens (Human), UniProt P01111+P62937); assay: Ras-Raf disruption/FRET/MOA assay (BRAF RBD, Cyclophilin A); format: biochemical
Sequence (P01111 whole entry): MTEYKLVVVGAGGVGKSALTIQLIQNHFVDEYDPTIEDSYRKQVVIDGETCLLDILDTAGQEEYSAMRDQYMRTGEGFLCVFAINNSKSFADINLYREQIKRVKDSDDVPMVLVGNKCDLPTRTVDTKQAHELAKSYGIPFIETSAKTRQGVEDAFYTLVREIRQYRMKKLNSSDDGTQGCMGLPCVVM
Sequence (P62937 whole entry): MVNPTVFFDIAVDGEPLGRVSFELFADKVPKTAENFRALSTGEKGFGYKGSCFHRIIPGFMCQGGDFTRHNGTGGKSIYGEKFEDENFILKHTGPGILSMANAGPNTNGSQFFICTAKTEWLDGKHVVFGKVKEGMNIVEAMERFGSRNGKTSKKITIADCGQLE

Consider the worked cases shown below.
CCn1c(-c2cccnc2[C@H](C)OC)c2c3cc(ccc31)-c1csc(n1)C[C@H](NC(=O)[C@H](C(C)C)N(C)C(=O)N1CC(S(C)(=O)=O)C1)C(=O)N1CCC[C@H](N1)C(=O)OCC(C)(C)C2 [Compound A383] = 100 to 1000 nM
CCn1c(-c2cccnc2[C@H](C)OC)c2c3cc(ccc31)-c1csc(n1)C[C@H](NC(=O)C1(F)CC1)C(=O)N1CCC[C@H](N1)C(=O)OCC(C)(C)C2 [Compound A362] = 100 to 1000 nM
CCn1c(-c2cccnc2[C@H](C)OC)c2c3cc(ccc31)-c1csc(n1)C[C@H](NC(=O)[C@H](C(C)C)N(C)C(=O)N1CC(CN(C)C)C1)C(=O)N1CCC[C@H](N1)C(=O)OCC(C)(C)C2 [Compound A576] = 100 to 1000 nM
CCn1c(-c2cccnc2[C@H](C)OC)c2c3cc(ccc31)-c1csc(n1)C[C@H](NC(=O)[C@H](C(C)C)N(C)C(=O)N1CC(O)(COC)C1)C(=O)N1CCC[C@H](N1)C(=O)OCC(C)(C)C2 [Compound A553] = 100 to 1000 nM
CCn1c(-c2cccnc2[C@H](C)OC)c2c3cc(ccc31)-c1csc(n1)C[C@H](NC(=O)[C@H](C(C)C)N(C)C(=O)N1[C@H](C)COC[C@@H]1C)C(=O)N1CCC[C@H](N1)C(=O)OCC(C)(C)C2 [Compound A276] = 100 to 1000 nM

Consider the following items and state reported IC50 for each.
1. CCn1c(-c2cccnc2[C@H](C)OC)c2c3cc(ccc31)-c1csc(n1)C[C@H](NC(=O)[C@H](C(C)C)N1CCC3(COC3)C1)C(=O)N1CCC[C@H](N1)C(=O)OCC(C)(C)C2 [Compound A561]
2. CCn1c(-c2cccnc2[C@H](C)OC)c2c3cc(ccc31)-c1csc(n1)C[C@H](NC(=O)[C@H](C(C)C)N1C[C@@H](c3ccccc3)CC1=O)C(=O)N1CCC[C@H](N1)C(=O)OCC(C)(C)C2 (single isomer, unassigned) [Compound A544]

Solution:
["10 to 100 nM", "1000 to 10000 nM"]

Consider the following items and state reported IC50 for each.
1. CCn1c(-c2cccnc2[C@H](C)OC)c2c3cc(ccc31)-c1csc(n1)C[C@H](NC(=O)[C@H](C(C)C)N(C)C(=O)N1CC(O)(CN(C)C)C1)C(=O)N1CCC[C@H](N1)C(=O)OCC(C)(C)C2 [Compound A597]
2. CCn1c(-c2cccnc2[C@H](C)OC)c2c3cc(ccc31)-c1csc(n1)C[C@H](NC(=O)[C@H](C(C)C)N(C)C(=O)N(C)N(C)C)C(=O)N1CCC[C@H](N1)C(=O)OCC(C)(C)C2 [Compound A454]

Solution:
1. 100 to 1000 nM
2. 10 to 100 nM

* * *

target: KRAS G12C (Homo sapiens (Human), UniProt P01116+P62937, G12C); assay: Ras-Raf disruption/FRET/MOA assay (BRAF RBD, Cyclophilin A); type: biochemical; conditions: read-out: KRAS G12C FRET IC50
Sequence (P01116-2 other isoform, or with tags, fused parts or gaps G12C): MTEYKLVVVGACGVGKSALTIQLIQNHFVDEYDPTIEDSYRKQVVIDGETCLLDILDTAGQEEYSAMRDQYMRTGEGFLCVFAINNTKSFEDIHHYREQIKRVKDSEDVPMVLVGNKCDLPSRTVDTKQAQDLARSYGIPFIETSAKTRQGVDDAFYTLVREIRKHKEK
Sequence (P62937 whole entry): as the sequence (P62937 whole entry) above
READOUT TYPE: IC50

Consider the worked cases shown below.
CCn1c(-c2cccnc2[C@H](C)OC)c2c3cc(ccc31)-c1csc(n1)[C@@H](OCC1CCN(C)CC1)[C@H](NC(=O)[C@H]1C[C@@H]1C)C(=O)N1CCC[C@H](N1)C(=O)OCC(C)(C)C2 = 100 to 1000 nM
CCn1c(-c2cccnc2[C@H](C)OC)c2c3cc(ccc31)-c1csc(n1)C[C@H](NC(=O)[C@H](C(C)C)N(C)C(=O)N1CC(C(=O)O)C1)C(=O)N1CCC[C@H](N1)C(=O)OCC(C)(C)C2 = 100 to 1000 nM

Now for the compound whose IC50 we want.
Exercise: Test system KRAS G12C (Homo sapiens (Human), UniProt P01116+P62937, G12C); read-out IC50; what value for CCn1c(-c2cnccc2COC)c2c3cc(ccc31)-c1cc(O)cc(c1)C[C@H](NC(=O)[C@H](C(C)C)N(C)C(=O)CCCCN)C(=O)N1CCC[C@H](N1)C(=O)OCC(C)(C)C2 ?
Solution: 100 to 1000 nM
